Source of measurements: paper PMC9964602

METHOD SUMMARY: in vitro
Type: in vitro ADME, bovine
MEASUREMENT CONTEXT: serum
Where a SMILES comes first, the peptide text is derived from it. [ ]: non-standard residue; d: D form. Aib = CC(C)(N)C(=O)O
TEST READOUT: remaining at 5 h, 200 μM (%)
# number only, unit % dropped from output

compound="CC[C@H](C)[C@H](NC(=O)CNC(=O)[C@@H](N)Cc1c[nH]c2ccccc12)C(=O)N[C@@H](CCCNC(=N)N)C(=O)N[C@@H](CCCNC(=N)N)C(=O)N[C@H](C(=O)N[C@@H](CC(C)C)C(=O)N[C@@H](CCCCN)C(=O)N[C@@H](Cc1ccc(O)cc1)C(=O)NCC(=O)N[C@@H](CCCCN)C(=O)N[C@@H](CCCNC(=N)N)C(=O)N[C@@H](CO)C(=O)N[C@@H](CCCCN)C(N)=O)[C@@H](C)CC [WMR] (H-WGIRRILKYGKRSK-NH2)" test_readout="remaining at 5 h, 200 μM" numeric_result=20

Proceed to the following item.
Q) What does the record list as remaining at 5 h, 200 μM for CC[C@H](C)[C@H](NC(=O)[C@H](CCCNC(=N)N)NC(=O)[C@H](CCCNC(=N)N)NC(=O)[C@@H](NC(=O)C(C)(C)NC(=O)[C@@H](N)Cc1c[nH]c2ccccc12)[C@@H](C)CC)C(=O)N[C@@H](CC(C)C)C(=O)N[C@@H](CCCCN)C(=O)N[C@@H](Cc1ccc(O)cc1)C(=O)NCC(=O)N[C@@H](CCCCN)C(=O)N[C@@H](CCCNC(=N)N)C(=O)N[C@H](CO)C(=O)N[C@H](CCCCN)C(N)=O [WMR-4] (H-W[Aib]IRRILKYGKR[dS][dK]-NH2) ?
A) 70
